target: HLA-A*03:01; experiment: IEDB peptide-MHC binding, purified MHC/competitive/fluorescence; filed as Kd, often an IC50 or EC50 that approximates it; bounds were set here for any values at or beyond the usual limits of such assays; details: source organism: Giardia lamblia ATCC 50803
Endpoint name: Kd

- Sequence input: "STTTCEAGV"
  Recorded result: "≥ 20 µM"

====

target: HLA-B*83:01; assay: IEDB peptide-MHC binding, purified MHC/competitive/fluorescence; filed as Kd, often an IC50 or EC50 that approximates it; bounds were set here for any values at or beyond the usual limits of such assays; conditions: source organism: Mycobacterium tuberculosis H37Ra
pKd: −log10 of the molar value.

- Sequence input: "FPRYPLNVL"
  Tested system: "HLA-B*83:01"
  pKd: 5.58
